Values compiled from PubChem BioAssay (NCI).

- assay overview: NCI Yeast Anticancer Drug Screen. Data for the mec2-1 strain (AID 157)
- run conditions: S. cerevisiae mec2-1 strain, stronger effect = higher value; at 50.0 µM unless noted
Compounds without any hit were thinned out: in the full panel of roughly 79,000, 15% have a hit.
quantity measured: growth inhibition (%)
Express it in %; write the number only.

Worked cases, growth inhibition given:
Prompt: Give recorded growth inhibition. `O=C(Sc1ccc(Br)cc1)c1ccccc1`
Response: 24.2

Prompt: Give recorded growth inhibition. `Cc1ccc(C(C)C)cc1NC(=O)c1ccc([N+](=O)[O-])cc1`
Response: 16.4

Prompt: Give recorded growth inhibition. O=c1cnn2c(n1)OC1C(O)C(CO)OC12 (stereo unspecified)
Response: -2.5

Prompt: Give recorded growth inhibition. `O=C(O)c1ccccc1SCCO`
Response: 18

Prompt: Give recorded growth inhibition. `O=C(O)c1ccc(NCO)cc1`
Response: 5.15

***
Prompt: Give recorded growth inhibition. `Cc1ccc(S(=O)(=O)ONNc2nccc3ccccc23)cc1`
Response: 7.05

Prompt: Give recorded growth inhibition. O=C1CN(CCc2ccccc2)CC(=O)N2C(c3ccccc3)CCCN12 (stereo unspecified)
Response: 38.5

Prompt: Give recorded growth inhibition. `CN(C)c1ccc(N=C(C#N)C(=O)c2ccccc2)cc1`
Response: 17.6

Prompt: Give recorded growth inhibition. `Cc1cc(C)nc(NS(=O)(=O)c2ccc(NC(=O)c3cccc4c(Nc5ccc(S(=O)(=O)Nc6nc(C)cc(C)n6)cc5)c5ccc(Cl)cc5nc34)cc2)n1`
Response: 35.7

Prompt: Give recorded growth inhibition. CCOC(=O)C(NC(C)=O)(Nc1ccc(S(N)(=O)=O)cc1)C(F)(F)F (stereo unspecified)
Response: 1.55

Prompt: Give recorded growth inhibition. `CCOC(OCC)c1ccc(OC)c(OC)c1`
Response: -5.3
